- tested_target: T1, recombinant human regenerating islet-derived protein 1α (REG1A) (human, UniProt P05451 23-166, limits assumed)
- T1 construct: also called recombinant human REG1A; recombinant REG1A
- T1 sequence (looked up): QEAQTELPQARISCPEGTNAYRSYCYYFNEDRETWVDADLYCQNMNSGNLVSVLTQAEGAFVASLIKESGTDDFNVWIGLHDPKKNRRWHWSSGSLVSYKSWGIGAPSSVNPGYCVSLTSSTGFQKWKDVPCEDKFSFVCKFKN
- method: sandwich ELISA; capture 25F3C4; REG1A 33.33 ng/mL
measure: OD value (OD)
The reply should be a number in OD, with the unit left off.

As a guide, the following entries are already answered.
antibody 11D11B11 (antibody, mouse IgG2a, kappa, V domains shown, Mouse monoclonal from hybridoma, stated mouse IgG1/Kappa; Used unlabelled as capture and biotin-labelled as detection antibody; also called 11D11B11-biotin) VH: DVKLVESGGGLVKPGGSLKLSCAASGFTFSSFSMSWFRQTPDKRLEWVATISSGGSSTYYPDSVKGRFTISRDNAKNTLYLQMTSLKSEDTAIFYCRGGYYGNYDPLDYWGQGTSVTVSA VL: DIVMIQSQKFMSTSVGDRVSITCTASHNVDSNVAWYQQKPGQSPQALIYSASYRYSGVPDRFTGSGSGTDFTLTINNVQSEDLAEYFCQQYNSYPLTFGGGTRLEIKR :: 0.083
antibody 4H8F1 (antibody, V domains shown, Mouse monoclonal from hybridoma, stated mouse IgG1/Kappa; also called 4H8F1-biotin; Antibody 1) VH: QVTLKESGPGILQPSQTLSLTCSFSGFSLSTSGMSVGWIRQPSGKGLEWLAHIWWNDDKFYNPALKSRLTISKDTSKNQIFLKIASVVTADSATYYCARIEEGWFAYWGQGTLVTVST VL: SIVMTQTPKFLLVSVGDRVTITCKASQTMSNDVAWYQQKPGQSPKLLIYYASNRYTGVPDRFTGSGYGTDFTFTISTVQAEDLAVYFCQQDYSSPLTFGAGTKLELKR :: 0.085
antibody 21B11D2 (antibody, mouse IgG2b, kappa, V domains shown, Mouse monoclonal from hybridoma, stated mouse IgG1/Kappa; Used unlabelled as capture and biotin-labelled as detection antibody; also called 21B11D2-biotin) VH: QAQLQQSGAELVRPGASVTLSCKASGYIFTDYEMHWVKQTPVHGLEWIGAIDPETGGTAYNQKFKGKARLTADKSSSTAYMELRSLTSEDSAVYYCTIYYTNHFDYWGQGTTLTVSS VL: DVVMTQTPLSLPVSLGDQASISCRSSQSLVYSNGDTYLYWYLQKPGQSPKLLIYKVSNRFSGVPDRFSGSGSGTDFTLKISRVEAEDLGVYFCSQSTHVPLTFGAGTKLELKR :: 0.071

Then there is this binder:
Form field OD value, entry antibody 12F12A10 (antibody, V domains shown, Mouse monoclonal from hybridoma, stated mouse IgG1/Kappa; also called 12F12A10-biotin; Antibody 2) VH: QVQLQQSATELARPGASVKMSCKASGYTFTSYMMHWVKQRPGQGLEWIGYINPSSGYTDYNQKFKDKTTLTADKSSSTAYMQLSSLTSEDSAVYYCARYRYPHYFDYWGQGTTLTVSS VL: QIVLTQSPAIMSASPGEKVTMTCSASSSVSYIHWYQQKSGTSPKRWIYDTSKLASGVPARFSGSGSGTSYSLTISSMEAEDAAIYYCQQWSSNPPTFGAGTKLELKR : 4.29

Origin of values: patent US20240241135A1
